This collection of values is drawn from PubChem BioAssay AID1963449.

Hi there, I'd appreciate the recorded IC50 for every entry that follows.
System: 596521-263-R-J1-PDC complex spheroid growth
Experiment: Anticancer human tumor 596521-263-R-J1-PDC patient-derived soft tissue sarcoma cell line growth inhibition [Asc]
Details: curve of first compound; second compound 1 µM

| Compound | Value Reported |
| --- | --- |
| Cn1ncnc1[C@H]1c2n[nH]c(=O)c3cc(F)cc(c23)N[C@@H]1c1ccc(F)cc1 + CNC(C)C(=O)NC1CN(S(=O)(=O)c2cccc(S(=O)(=O)N3CCC4CCC(C(=O)NC(c5ccccc5)c5ccccc5)N4C(=O)C(NC(=O)C(C)NC)C3)c2)CCC2CCC(C(=O)NC(c3ccccc3)c3ccccc3)N2C1=O | > 100 nM |

Give IC50 for each of the items listed below.
1. Cn1ncnc1[C@H]1c2n[nH]c(=O)c3cc(F)cc(c23)N[C@@H]1c1ccc(F)cc1 + Cc1c(S(C)(=O)=O)c(-c2cc(F)cc(N3CCN(c4ccc(NS(=O)(=O)c5ccc(NC(CCN6CCC(C(=O)OCCCP(=O)(O)O)CC6)CSc6ccccc6)c(S(=O)(=O)C(F)(F)F)c5)cc4)CC3)c2)c(-c2ccc(Cl)cc2)n1C(C)C
2. CCN1CCN(Cc2ccc(Nc3ncc(F)c(-c4cc(F)c5nc(C)n(C(C)C)c5c4)n3)nc2)CC1 + Cc1c(S(C)(=O)=O)c(-c2cc(F)cc(N3CCN(c4ccc(NS(=O)(=O)c5ccc(NC(CCN6CCC(C(=O)OCCCP(=O)(O)O)CC6)CSc6ccccc6)c(S(=O)(=O)C(F)(F)F)c5)cc4)CC3)c2)c(-c2ccc(Cl)cc2)n1C(C)C
3. C=C(F)C(=O)N1CCN(c2nc(OCC3CCCN3C)nc3c2CCN(c2cccc4cccc(Cl)c24)C3)CC1CC#N (centres undefined) + Cc1c(S(C)(=O)=O)c(-c2cc(F)cc(N3CCN(c4ccc(NS(=O)(=O)c5ccc(NC(CCN6CCC(C(=O)OCCCP(=O)(O)O)CC6)CSc6ccccc6)c(S(=O)(=O)C(F)(F)F)c5)cc4)CC3)c2)c(-c2ccc(Cl)cc2)n1C(C)C

[reply]
["> 100 nM", "> 1000 nM", "2760 nM"]

* * *

Test system: 596521-263-R-J1-PDC complex spheroid growth
Experiment: Anticancer human tumor 596521-263-R-J1-PDC cell line growth inhibition [Asc];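 also: spheroids exposed to compounds for 7 days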
Details: second compound 0.1 µM; first compound 0.0949 µM; stronger effect = lower value
Give measured viability, T/C for each item. Keep answers brief.

| Compound | viability, T/C |
| --- | --- |
| Cc1nc(N2CCC3(CC2)COC(C)C3N)c(CO)nc1Sc1ccnc(N)c1Cl (configuration not stated) + Cc1c(S(C)(=O)=O)c(-c2cc(F)cc(N3CCN(c4ccc(NS(=O)(=O)c5ccc(NC(CCN6CCC(C(=O)OCCCP(=O)(O)O)CC6)CSc6ccccc6)c(S(=O)(=O)C(F)(F)F)c5)cc4)CC3)c2)c(-c2ccc(Cl)cc2)n1C(C)C | 87.2% |

Pending compound:
[ask] Give the measured viability, T/C of Cc1nc(N2CCC3(CC2)COC(C)C3N)c(CO)nc1Sc1ccnc(N)c1Cl (configuration not stated) + CNC(C)C(=O)NC1CN(S(=O)(=O)c2cccc(S(=O)(=O)N3CCC4CCC(C(=O)NC(c5ccccc5)c5ccccc5)N4C(=O)C(NC(=O)C(C)NC)C3)c2)CCC2CCC(C(=O)NC(c3ccccc3)c3ccccc3)N2C1=O .
[reply] 77.1%
